Numbers sourced from the supplement of paper PMC9170038.

- Test system: MS2 coat protein
- procedure.text: apparent KD of MS2 coat protein; higher = weaker reporter binding
- condition.description: Eterna round: R107; input ligand: theophylline 2 mM
recorded.endpoint: apparent KD of MS2 coat protein (nM)
Give just the number in nM; leave the unit off.

Consider the following illustrative entries.
sequence.code	target.under.test	recorded.value
GGAUAGGACAGAAGGAGCGACAUGAGGAUCACCCAUGUCUACCACGUCGAAAGACGCUCAUGUCAGGUAGGUCGCUGUCCUAUCG [ArgXB 9 #StaticStem #MS2LeftOffAptamer]	MS2 coat protein	183
CGGUUGCCACAUGAGGAUCACCCAUGUGAAGGAGCGGCGAAUAAGCCAGGUAGGUCGCGCAUGAAUAAAUCAUGUUGGUGCCGAA [XArg-A 17 V2]	MS2 coat protein	68.5
AGCACAUGAGGAUCACCCAUGUGUCGGUACCGAGGACCGGUACGGCCGCCACUCGCAGGACAUGAGGAUCACCCAUGUGCCGCCG [SSTA DOUBLE!!! :-D #8]	MS2 coat protein	35.9
ACGCUGAUUGAUUACAAUCAGCGAAAAGAUACCAGUGGGUAAUCCCACCCUUGGCAGCUUAAACAUGAGCAUCAGCCAUGUGGUA [TheoAS 15 #MS2Right #BothOrNeither #AlternativeMS2]	MS2 coat protein	37.2

Let us examine a further case.
Q. Identify measured apparent KD of MS2 coat protein associated with GGACUAACCAGAAGGAGCGACACGCAGAAACUGCAAAUUCCUCCGCACGAGGAUCACCCGUGUCAGGUAGGUCGCUGGUUAGUCG [ArgBX 28]
A. 23.5

====

- Test system: K4 kissing-loop RNA reporter;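 further: bound reporter read as fluorescence of individual clusters on recovered sequencing chips by microscopy, with normalized cluster intensities fitted with a binding model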
- procedure.text: apparent KD of K4 kissing-loop reporter; higher = weaker reporter binding
- condition.description: Eterna round: R107; input ligand: theophylline 20 uM
recorded.endpoint: apparent KD of K4 kissing-loop reporter (nM)
Give just the number in nM; leave the unit off.

Consider the following illustrative entries.
sequence.code	recorded.value
AAAAUAAUCCAGUGAUGUUGGUGUCCAGAUACCAGCGACGAAAGUCGCCCUUGGCAGCUGUGGACGUACAAAAUAAGUACGUCCU	251
UGGGUGUAGUGAUGUUAUAUAGAGAAUGAUACCAGCUUAGAGAGGAGCCCUUGGCAGCGUAGACGAGUAUCAUUGGAGGAGGAGG [#22 K4 Theophylline A Exclusion]	724
AAGUGAUGUUGUAGUGAUGUUGUGAUGUUGCAGGAUAUAUAGUGAUGUAGAAGGGUAUGUACUUAUUUUUUAUUUGAGUUAUGUU [mmvmmullin]	43.9
AGGCACGAGCAAGGAUAUCGAGUAGAGUGAUGUUCUGCCUGGGUUGGCUCGAAAGAGCCUUCUCAGCGAGAAGGUGCUCGUGCCU [#2 Same State - FMN A Attempt #21 (HarryS)]	638
GCCGUACGCAUGGAUACCAGACUACCAUUGGAAACAAUGUGUCCGGUAGUGAUGUUACCUGUCCCUUGGCAGCCAUGCGUACGGC	396
GGUGUUGUUUGUGCUGUUUUCUUUGUUUCUCGAGGACCGGUACGGCCGCCACUCGAGUGAUGUUUGGGUAGCGAUGUUUGUUAGU [Bdazzled - #2 - Exc. Tryptophan A]	383
AAUCGAGUGAUGUUCGAUGUAGUGCAUUCAGAGGAUAUAGGAUGGGCUAGAAGGCUGAAAAGUGCUUCGAGUGAUGUUCGAAGAU [Exclusion FMN A GF 4]	49.7
AAUAAUAGUUGAGCAGGCGUGGUCUGAGAUACCAGUGAUUUCGAUCACCCUUGGCAGCUCAGCAUGAGUGAUGUUCAUGCUAUUC [Theo A Ex t10]	145

Q. Identify measured apparent KD of K4 kissing-loop reporter associated with GUGGAAUUAUGAAAGUGGUUUUAUUAGGAAGGAGCGGCCGAAAGGCCAGGUAGGUCGCCUAUUGACAGUGAUGUUGUUAUAUGGU [#14]
A. 204

Q. Identify measured apparent KD of K4 kissing-loop reporter associated with UGAUCACAGUGAUGUUGUGGCAAAAGUGAUACCAGCCGUGUACGAGGCCCUUGGCAGCACCAGGGCUGUACGUCGUUAGAUCCGG [theeternabot_exclusion_KL_Theo_A_33]
A. 177

Q. Identify measured apparent KD of K4 kissing-loop reporter associated with CUUUUACAGUCGGCCGCCACUGACAGCACUUCAAAGACAGUAUAAGGGUAGUGAUGUUACUUUAUCAGGACCGGGACUACCUAAC [theeternabot_sameState_KL_Trp_B_3]
A. 279
